Let's look at some molecules and their measured inhibition at 0.5 µM.
Target: Kir4.1 (Homo sapiens)
Construct: host or cells: CHO-K1
Sequence (P78508 1-379): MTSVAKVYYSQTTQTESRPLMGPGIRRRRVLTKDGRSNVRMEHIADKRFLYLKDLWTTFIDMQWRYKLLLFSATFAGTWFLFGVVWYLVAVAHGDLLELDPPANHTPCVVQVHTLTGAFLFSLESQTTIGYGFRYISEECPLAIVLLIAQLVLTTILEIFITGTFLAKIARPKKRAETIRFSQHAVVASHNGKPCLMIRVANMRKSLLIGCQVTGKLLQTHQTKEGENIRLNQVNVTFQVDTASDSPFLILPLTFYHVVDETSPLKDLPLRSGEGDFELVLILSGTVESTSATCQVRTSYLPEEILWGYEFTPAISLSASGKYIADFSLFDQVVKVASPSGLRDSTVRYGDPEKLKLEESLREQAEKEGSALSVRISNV
Assay: Whole-cell patch clamp, Kir4.1 currents in transfected CHO-K1 cells
Assay type: cell-based
Conditions: CHO-K1, 0.5 μM; -120 mV; read-out: Kir4.1 Inhibition ± SD (%) at 0.5 μM, -120 mV
Property measured: inhibition at 0.5 µM (%)

> print(dat)
                                   molecule     property.measured  display.unit  experimental.value
1  c1ccc2c(c1)oc1ccc(Nc3ccnc(NCCCN4CCOCC4)n3)cc12  inhibition at 0.5 µM             %                73.2
2  CC1(C)C2CN(CCCNc3nccc(Nc4ccc5oc6ccccc6c5c4)n3)CC21 (centres unmarked)  inhibition at 0.5 µM             %               -0.29
3  CC1CCN(CCCNc2nccc(Nc3ccc4oc5ccccc5c4c3)n2)CC1  inhibition at 0.5 µM             %                9.76
4  c1ccc2c(c1)ccc1[nH]c3ccc(Nc4ccnc(NCCCN5CCOCC5)n4)cc3c12  inhibition at 0.5 µM             %                30.3
5  c1ccc2c(c1)oc1ccc(Nc3ccnc(NCCCN4CCCCCC4)n3)cc12  inhibition at 0.5 µM             %                46.4

====

Biological target: Kir4.1 (Homo sapiens)
Construct: host or cells: CHO-K1
Test: Whole-cell patch clamp, Kir4.1 currents in transfected CHO-K1 cells
Format: cell-based
Settings: CHO-K1, 10 μM; -120 mV; read-out: Kir4.1 Inhibition ± SD (%) at 10 μM, -120 mV
Text: Plasmids encoding WT human potassium channels Kir1.1, Kir2.1, Kir2.2, Kir4.1, and Kir4.2 were obtained from the Beijing Genomics Institute. All point mutations were constructed using the QuickChange II Site‐Directed Mutagenesis Kit (Stratagene) and subsequently verified by sequencing. CHO‐K1 cells were maintained in DMEM/F12 growth medium containing 10% fetal bovine serum. […]
Kind request: treat 90% as inclusive, so inhibition at 10 µM at 90% or higher is criterion met, anything lower is criterion not met.

> print(dat)
                                     smiles              label
1  c1cc(NCCCN2CCOCC2)nc(Nc2ccc3oc4ccccc4c3c2)c1  criterion not met
2  c1ccc2c(c1)oc1ccc(N3CCC4(CCN(CCCN5CCOCC5)CC4)CC3)cc12  criterion not met
3  c1ccc2c(c1)oc1ccc(Nc3ccnc(NCC4(CN5CCOCC5)CC4)n3)cc12  criterion not met
4  CN(CCCN1CCOCC1)c1nccc(Nc2ccc3oc4ccccc4c3c2)n1      criterion met
5  c1ccc2nc3ccc(Nc4ccnc(NCCCN5CCOCC5)n4)cc3cc2c1  criterion not met

====

test: Plasma/tissue (kidney) distribution; assay type: in vivo; conditions: male, C57BL/6J, mouse, plasma, ip; mice (N = 3), 10 mg/kg i.p., 1 h; read-out: Plasma Calculated Concentration
Property measured: concentration at 1 h (ng/mL)

> print(dat)
                                     smiles     property.measured  display.unit  experimental.value
1  c1ccc2c(c1)oc1ccc(Nc3ccnc(NCCCN4CCOCC4)n3)cc12  concentration at 1 h         ng/mL                 234

====

assay: Brain penetration (plasma and brain concentration, LC-MS/MS); assay type: in vivo, mice; details: male, C57BL/6J, mouse, brain, ip, 10 mg/kg, mice, 10 mg/kg i.p., 1 h post-dosing; read-out: Brain Calculated Concentration
Text: […]
Property measured: concentration at 1 h (ng/mL)

> print(dat)
                                     smiles  display.unit  experimental.value
1  c1ccc2c(c1)oc1ccc(Nc3ccnc(NCCCN4CCOCC4)n3)cc12         ng/mL                2530

====

test: Brain penetration (plasma and brain concentration, LC-MS/MS); type: in vivo, mice; details: male, C57BL/6J, mouse, brain and plasma, ip, 20 mg/kg, mice, 20 mg/kg i.p., 1 h; read-out: Brain/Plasma concentration ratio
Property measured: Kp at 1 h

> print(dat)
                                     smiles  experimental.value
1  c1ccc2c(c1)oc1ccc(Nc3ccnc(NCCCN4CCOCC4)n3)cc12                12.9

====

Molecular target: Kir4.1 (Homo sapiens)
Construct: host or cells: CHO-K1
Sequence (P78508 1-379): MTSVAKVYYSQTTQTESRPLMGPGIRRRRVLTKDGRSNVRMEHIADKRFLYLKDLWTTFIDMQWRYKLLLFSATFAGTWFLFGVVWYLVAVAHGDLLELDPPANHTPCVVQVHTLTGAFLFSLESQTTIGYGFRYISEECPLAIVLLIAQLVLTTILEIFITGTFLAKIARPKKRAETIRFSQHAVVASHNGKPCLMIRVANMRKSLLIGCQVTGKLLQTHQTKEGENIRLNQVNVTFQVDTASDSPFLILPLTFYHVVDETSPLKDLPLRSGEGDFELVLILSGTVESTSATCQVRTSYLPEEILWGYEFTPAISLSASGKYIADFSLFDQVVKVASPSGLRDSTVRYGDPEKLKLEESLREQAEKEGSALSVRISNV
Assay: Whole-cell patch clamp, Kir4.1 currents in transfected CHO-K1 cells
Type: cell-based
Conditions: CHO-K1, 1 μM; -120 mV; read-out: Kir4.1 Inhibition ± SD (%) at 1 μM, -120 mV
Property measured: inhibition at 1 µM

> print(dat)
                                   compound  experimental.value
1  CC1(C)C2CN(CCCNc3nccc(Nc4ccc5oc6ccccc6c5c4)n3)CC21 (stereo not drawn)               84.7%
2  c1ccc2c(c1)oc1ccc(Nc3ccnc(NCCCN4CCCC4)n3)cc12               36.4%
3  CC1(C)c2ccccc2-c2cc(Nc3ccnc(NCCCN4CCOCC4)n3)ccc21               42.7%
4  CCn1c2ccccc2c2cc(Nc3ccnc(NCCCN4CCOCC4)n3)ccc21 [EHop-016, reference compound]               64.6%
5  c1ccc2c(c1)oc1ccc(NC3CC4(CCN(CCCN5CCOCC5)CC4)C3)cc12               0.88%
6  COc1cnc(NCCCN2CCOCC2)nc1Nc1ccc2oc3ccccc3c2c1               3.97%
7  CN(CCCN1CCOCC1)c1nccc(Nc2ccc3oc4ccccc4c3c2)n1              -2.25%
8  Cc1cnc(NCCCN2CCOCC2)nc1Nc1ccc2oc3ccccc3c2c1               9.55%
9  c1ccc2c(c1)oc1ccc(Nc3cc(NCCCN4CCOCC4)ncn3)cc12              -0.94%

====

Let's look at some compounds and their measured inhibition at 10 µM.
target: Kir4.1 (Homo sapiens, UniProt P78508); construct: host or cells: CHO-K1; assay: Whole-cell patch clamp, Kir4.1 currents in transfected CHO-K1 cells; format: cell-based; conditions: CHO-K1, 10 μM; +50 mV; read-out: Kir4.1 Inhibition ± SD (%) at 10 μM, +50 mV
Property measured: inhibition at 10 µM (%)

> print(dat)
                                    compound                           assay.target  display.unit  experimental.value
 1  CN(CCCN1CCOCC1)c1nccc(Nc2ccc3oc4ccccc4c3c2)n1 [JX3232]  Kir4.1 (Homo sapiens, UniProt P78508)             %                96.9
 2  c1ccc2c(c1)oc1ccc(Nc3cnc(NCCCN4CCOCC4)cn3)cc12 [JX3225]  Kir4.1 (Homo sapiens, UniProt P78508)             %                96.9
 3  CC1CCN(CCCNc2nccc(Nc3ccc4oc5ccccc5c4c3)n2)CC1 [JX3245]  Kir4.1 (Homo sapiens, UniProt P78508)             %                96.8
 4  CCN(CC)CCCNc1nccc(Nc2ccc3oc4ccccc4c3c2)n1 [JX3238]  Kir4.1 (Homo sapiens, UniProt P78508)             %                98.5
 5  c1ccc2c(c1)oc1ccc(N3CCC4(CC3)CN(CCCN3CCOCC3)C4)cc12 [JX3229]  Kir4.1 (Homo sapiens, UniProt P78508)             %                26.8
 6  c1cc(NC2CCCCC2)nc(NCCCN2CCOCC2)n1 [JX3202]  Kir4.1 (Homo sapiens, UniProt P78508)             %                6.08
 7  c1ccc2c(c1)ccc1[nH]c3ccc(Nc4ccnc(NCCCN5CCOCC5)n4)cc3c12 [JX3215]  Kir4.1 (Homo sapiens, UniProt P78508)             %                95.8
 8  Fc1cnc(NCCCN2CCOCC2)nc1Nc1ccc2oc3ccccc3c2c1 [JX3217]  Kir4.1 (Homo sapiens, UniProt P78508)             %                11.9
 9  CC(C)(C)OC(=O)NCCCNc1nccc(Nc2ccc3oc4ccccc4c3c2)n1 [JX3237]  Kir4.1 (Homo sapiens, UniProt P78508)             %                89.1
10  c1ccc2c(c1)oc1ccc(Nc3ccnc(OCCCN4CCOCC4)n3)cc12 [JX3231]  Kir4.1 (Homo sapiens, UniProt P78508)             %                96.3
11  CC(CNc1nccc(Nc2ccc3oc4ccccc4c3c2)n1)CN1CCOCC1 (stereo not shown) [JX3233]  Kir4.1 (Homo sapiens, UniProt P78508)             %                92.2
12  c1ccc2c(c1)oc1ccc(Nc3ccnc(NCCCN4CCOCC4)n3)cc12 [JX3212]  Kir4.1 (Homo sapiens, UniProt P78508)             %                  96
13  CC1(C)C2CN(CCCNc3nccc(Nc4ccc5oc6ccccc6c5c4)n3)CC21 (stereo not shown) [JX3240]  Kir4.1 (Homo sapiens, UniProt P78508)             %                97.5
14  C1=Nc2ccccc2Oc2ccc(Nc3ccnc(NCCCN4CCOCC4)n3)cc21 [JX3214]  Kir4.1 (Homo sapiens, UniProt P78508)             %                93.6
15  c1ccc2c(c1)oc1ccc(Nc3ccnc(NCCCN4CCCC4)n3)cc12 [JX3239]  Kir4.1 (Homo sapiens, UniProt P78508)             %                  96
16  COC1CCN(CCCNc2nccc(Nc3ccc4oc5ccccc5c4c3)n2)CC1 [JX3246]  Kir4.1 (Homo sapiens, UniProt P78508)             %                91.3
17  O=C1c2ccccc2-c2cc(Nc3ccnc(NCCCN4CCOCC4)n3)ccc21 [JX3211]  Kir4.1 (Homo sapiens, UniProt P78508)             %                89.2
18  c1ccc2c(c1)oc1ccc(N3CCC4(CCN(CCCN5CCOCC5)CC4)CC3)cc12 [JX3230]  Kir4.1 (Homo sapiens, UniProt P78508)             %                63.3
19  c1ccc2c(c1)oc1ccc(Nc3ccnc(NCCCN4CCCCC4)n3)cc12 [JX3244]  Kir4.1 (Homo sapiens, UniProt P78508)             %                98.7

The reported numbers originate from paper PMC12903969.
